target: Beta-lactamase (Pseudomonas aeruginosa (strain ATCC 15692 / PAO1 / 1C / PRS 101 / LMG12228)) (UniProt P24735); test: Ratio of Kcat to Km of Pseudomonas aeruginosa 4352 AmpC assessed as drug hydrolysis by spectrophotometry relative to cephaloridine; parameters: scale not given: the % may be the effect or the level left
Sequence (P24735 27-397 limits assumed): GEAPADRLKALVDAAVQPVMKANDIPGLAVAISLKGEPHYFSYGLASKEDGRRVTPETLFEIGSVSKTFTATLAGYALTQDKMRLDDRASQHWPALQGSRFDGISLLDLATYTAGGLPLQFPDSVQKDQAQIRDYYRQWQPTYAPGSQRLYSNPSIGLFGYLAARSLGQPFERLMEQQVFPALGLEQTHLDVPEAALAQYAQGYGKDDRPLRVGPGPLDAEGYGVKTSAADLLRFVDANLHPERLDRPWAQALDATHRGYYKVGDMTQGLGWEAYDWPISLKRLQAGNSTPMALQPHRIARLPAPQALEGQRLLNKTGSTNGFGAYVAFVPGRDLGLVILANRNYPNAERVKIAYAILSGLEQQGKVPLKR
So basically, if Activity comes in under 0.4% it's fulfilled, and if it's 0.4% or more it's not fulfilled.

> print(dat)
                                smilesinput          class
1  CC1(C)S[C@@H]2[C@H](NC(=O)Cc3ccccc3)C(=O)N2[C@H]1C(=O)O  not fulfilled
2  O=C(Cc1cccs1)N[C@@H]1C(=O)N2C(C(=O)O)=C(/C=C/c3ccc([N+](=O)[O-])cc3[N+](=O)[O-])CS[C@H]12  not fulfilled
3  CC(C)(O/N=C(\C(=O)N[C@@H]1C(=O)N2C(C(=O)[O-])=C(C[n+]3ccccc3)CS[C@H]12)c1csc(N)n1)C(=O)O  not fulfilled
4  Nc1nc(/C(=N/O)C(=O)N[C@@H]2C(=O)N3C(C(=O)O)=C(/C=C4\CCN([C@@H]5CCNC5)C4=O)CS[C@H]23)ns1      fulfilled
5  CO/N=C(\C(=O)N[C@@H]1C(=O)N2C(C(=O)[O-])=C(C[N+]3(C)CCCC3)CS[C@H]12)c1csc(N)n1      fulfilled
